System: Ctenocephalides felis
Settings: 8 h; data from laboratory 1
Parameter C. felis Mortality (%) 8 h: see the listing below.
State just the number; it will be interpreted in %.

CC(=NN(CCC#N)CCC#N)c1cc(Cl)ccc1NS(=O)(=O)C(F)(F)F [Compound 202]; 3
CC(=NNc1ccc(F)cc1)c1ccccc1NS(=O)(=O)C(F)(F)F [Compound 178]; 4
CCOC(=O)NN=C(CC)c1cc(Cl)ccc1NS(=O)(=O)C(F)(F)F [Compound 88]; 6
CC(=NN1CCCCC1)c1ccc(C(F)(F)F)cc1NS(=O)(=O)C(F)(F)F [Compound 177]; 3
CC(=NN(C)c1ccc(Cl)cn1)c1cc(Cl)ccc1NS(=O)(=O)C(F)(F)F [Compound 196]; 3

Suppose we examine the compound CCCN(N=C(C)c1cc(Cl)ccc1NS(=O)(=O)C(F)(F)F)c1cccc(Cl)c1Cl [Compound 200] ; what C. felis Mortality (%) 8 h value has been reported? 2

Suppose we examine the compound CCC(=NNC(=O)OC)c1cc(Cl)ccc1NS(=O)(=O)C(F)(F)F [Compound 87] ; what C. felis Mortality (%) 8 h value has been reported? 7

Suppose we examine the compound CC(=NN(C)c1ccccn1)c1cc(Cl)ccc1NS(=O)(=O)C(F)(F)F [Compound 195] ; what C. felis Mortality (%) 8 h value has been reported? 2
